- Tested on: BMPR1A
- STUDY_CONDITIONS: concentration: 1 μM, replicates: in singlicate; n = 1;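 also: KINOMEscan kinase panel screen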
METRIC: %Inh (%)
Your answer should be a plain number; it is taken to be in %.

Give its %Inh value. Item: CCCCc1nn2ncccc2c1-c1ccnc(NC2CC2)n1 [GW684374]
0

Next entry: Fc1ccc(-c2nc3n(c2-c2ccncc2)CCS3)cc1 [GI98581]
0

Now try COc1ccc(Nc2nccc(-c3ccc(NC(=O)c4cc5cc(F)ccc5[nH]4)cc3)n2)cc1 [GSK1229496] .
0

Next entry: COc1nccc(-c2c(-c3ccc(F)cc3)ncn2CCCN2CCOCC2)n1 [SB-282852]
0

Another molecule: CS(=O)(=O)CCNCc1nc(-c2ccc3ncnc(Nc4ccc5c(cnn5Cc5ccccc5)c4)c3c2)cs1.Cl.Cl [GW569716]
0

Here is the next molecule: CCn1c(-c2c(N)noc2C)nc2cnccc21 [SB-737856]
0

Proceed to O=C(Nc1n[nH]c2nc(-c3cccs3)c(Br)cc12)C1CC1 [SB-735297]
0

Please answer likewise for O=C(Nc1n[nH]c2nc(-c3cccs3)c(Br)cc12)C1CCCC1 [SB-743341]
28

What would you report for `CNC(=O)c1ccc(C)c(-n2c(C)cc(OCc3ccc(F)cc3F)c(Br)c2=O)c1` ?
39

Check COc1ccc(Nc2nccc(N3CCC(NC(=O)C(C)c4ccc(Cl)cc4)CC3)n2)cc1 (stereo not drawn) [GSK1379812] too.
0

Could you do the same for Cn1cncc1C(=O)NC1CCN(c2ccnc(Nc3ccc(F)cc3)n2)C1 (stereo not drawn) [GSK1379717] , please?
5

Moving on to FC(F)(F)c1ccccc1-c1cc(-c2c[nH]nc2-c2ccccn2)ccn1 [GW679396]
13

Repeat with Cc1ccc(NC(=O)Nc2ccccc2F)cc1-c1ccc(C(=O)Nc2ccncc2)cc1 [GSK1398477]
7

Again, but for Cn1cncc1-c1cc2c(Nc3ccc(OCc4ccccc4)cc3)ncnc2cn1 [GW281179]
13

# repeat for CS(=O)(=O)Cc1ccc(Nc2nccc(-c3c(-c4cccc(NC(=O)C5CCCCC5)c4)nn4ncccc34)n2)cc1 [GSK350559]
0

Would you kindly repeat that for Cc1c(Cn2c(C)c(C)n3c(=O)cc(N4CCOCC4)nc23)cccc1C(F)(F)F [GSK2328680] ?
6

Check COC(=O)C(NC(=O)NC1CCN(c2ccnc(Nc3ccc(F)cc3)n2)C1)c1ccccc1 (stereo not drawn) [GSK1379712] too.
0

Same question, Nc1nccc(-c2c(-c3ccc(F)cc3)ncn2C2CCN(Cc3ccccc3)CC2)n1 [SB-219980] this time
0

---

- System: GAK
- STUDY_CONDITIONS: concentration: 1 μM, replicates: in singlicate; n = 1
METRIC: %Inh (%)
Numbers only here, please. The scale is %.

Which measured %Inh value corresponds to O=C(Nc1n[nH]c2nc(-c3ccco3)c(Br)cc12)C1CCN(Cc2ccccc2)C1.O=C(O)[C@H](O)[C@@H](O)C(=O)O (centres unmarked) [SB-742034] ?
8

And for O=c1cc(N2CCOCC2)nc2n(Cc3ccccc3F)ccn12 [GSK2297428] ?
0

Okay, and COc1cccc(CNC(=O)NC2CCN(c3ccnc(Nc4ccc(F)cc4)n3)C2)c1 (centres unmarked) [GSK1379723] ?
12

Item: O=C1NC(=O)C(c2ccc(Cl)cc2)=C1Nc1cccc(Cl)c1 [SB-317651]
0

// same read-out, input: COc1ccc2cc(-c3nc(-c4ccccc4C(C)C)[nH]c3-c3ccncc3)ccc2c1 [SB-660566]
40

Same question for COc1ccc(Nc2nccc(N3CCC(NC(=O)c4cc5ccccc5s4)C3)n2)cc1 (centres unmarked) [GSK1379738] please.
0

Same for `COc1ccc(CSc2nnc(-c3ccc4nccn4c3)o2)cc1C(F)(F)F`
6

Item: COC(=O)C(NC(=O)NC1CCN(c2ccnc(Nc3ccc(F)cc3)n2)C1)c1ccccc1 (centres unmarked) [GSK1379712]
0
